test system: HCT-116; assay: Antiproliferative activity against human HCT116 cells assessed as reduction in cell growth incubated for 72 hrs by CellTiter-Glo assay; assay type: functional, cell-based; conditions: HCT-116, 72 h
measurement.type: IC50

| structure.string | assay.system | recorded.result |
| --- | --- | --- |
| O=C(CCSC(=S)NCc1cccnc1)c1cnn2ncccc12 | HCT-116 | 1.52 µM |
| O=C(CCSC(=S)NCc1cccnc1)c1c[nH]c2ncc(Cl)cc12 | HCT-116 | 6.16 µM |
| O=C(CCSC(=S)NCc1cccnc1)c1cn(C2CCC2)c2ncccc12 | HCT-116 | 3.52 µM |
| O=C(CCSC(=S)NCc1cccnc1)c1cn(C2CC2)c2ncccc12 | HCT-116 | 0.84 µM |
| O=C(CCSC(=S)NCc1cccnc1)c1c[nH]c2ncccc12 | HCT-116 | 3.09 µM |

* * *

target: Pyruvate kinase PKM (Homo sapiens, UniProt P14618); experiment: Activation of human recombinant His-tagged PKM2 expressed in Escherichia coli using PEP as substrate measured at 30 sec between 3 and 6 mins in presence of […] by fluorescent pyruvate kinase-lactate dehydrogenase coupled assay; conditions: read-out: AC50
Sequence (P14618 whole entry): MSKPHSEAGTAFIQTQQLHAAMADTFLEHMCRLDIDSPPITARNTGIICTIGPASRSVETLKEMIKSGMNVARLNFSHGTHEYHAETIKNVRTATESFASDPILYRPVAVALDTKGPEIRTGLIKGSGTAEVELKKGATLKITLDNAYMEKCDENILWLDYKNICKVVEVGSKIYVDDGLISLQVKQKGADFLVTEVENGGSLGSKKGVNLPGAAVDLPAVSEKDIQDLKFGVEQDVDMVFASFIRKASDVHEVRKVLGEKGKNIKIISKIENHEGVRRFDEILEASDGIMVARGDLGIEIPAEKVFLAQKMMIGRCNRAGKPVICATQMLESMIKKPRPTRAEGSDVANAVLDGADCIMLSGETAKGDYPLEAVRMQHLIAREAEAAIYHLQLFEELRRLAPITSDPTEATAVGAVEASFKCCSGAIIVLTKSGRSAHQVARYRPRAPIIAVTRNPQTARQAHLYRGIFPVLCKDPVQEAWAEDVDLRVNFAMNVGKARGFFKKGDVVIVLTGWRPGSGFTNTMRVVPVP

| structure.string | unit.label | censoring.qualifier | AC50 |
| --- | --- | --- | --- |
| O=C(CCSC(=S)NCc1cccnc1)c1cnn2ccccc12 | nM | > | 20000 |
| O=C(CCSC(=S)NCc1cccnc1)c1c(-c2ccccc2)nn2ncccc12 | nM | = | 450 |
| O=C(CCSC(=S)NCc1cccnc1)c1cnn2ncccc12 | nM | = | 220 |
| O=C(CCSC(=S)NCc1cccnc1)c1cn(C2CC2)c2ncccc12 | nM | = | 4560 |

* * *

molecular target: Pyruvate kinase PKM (Homo sapiens); assay: Activation of human recombinant His-tagged PKM2 expressed in Escherichia coli using PEP as substrate measured at 30 sec between 3 and 6 mins in presence of […] by fluorescent pyruvate kinase-lactate dehydrogenase coupled assay; details: read-out: AC50
# maps each entry to its AC50

| structure.string | AC50 |
| --- | --- |
| O=C(CCSC(=S)NCc1cccnc1)c1c[nH]c2ncc(-c3ccc(Cl)cc3)cc12 | > 20 µM |
| O=C(CCSC(=S)NCc1cccnc1)c1cn(C2CCC2)c2ncccc12 | 3.93 µM |
| C#Cc1ccnc2[nH]cc(C(=O)CCSC(=S)NCc3cccnc3)c12 | > 20 µM |

* * *

test system: A-375; test: Antiproliferative activity against human A375 cells assessed as reduction in cell growth incubated for 72 hrs by CellTiter-Glo assay; assay type: functional, cell-based; conditions: A-375, 72 h
Each entry below carries its reported log10(IC50).
measurement.type: log10(IC50) (log10 of the value in nM)

| structure.string | recorded.result |
| --- | --- |
| O=C(CCSC(=S)NCc1cccnc1)c1cn(CC(F)F)c2ncccc12 | 2.45 |
| O=C(CCSC(=S)NCc1cccnc1)c1cnn2ncccc12 | 2.52 |
| O=C(CCSC(=S)NCc1cccnc1)c1c[nH]c2nccc(Cl)c12 | 2.61 |
| O=C(CCSC(=S)NCc1cccnc1)c1cn(C2CC2)c2ncccc12 | 2.32 |
| O=C(CCSC(=S)NCc1cccnc1)c1cn(-c2ccccc2)c2ncccc12 | 3.59 |
| Cn1cc(C(=O)CCSC(=S)NCc2cccnc2)c2cccnc21 | 2.46 |
| O=C(CCSC(=S)NCc1cccnc1)c1c(-c2ccccc2)nn2ncccc12 | 3.44 |

Value source: ChEMBL document CHEMBL4346662
